System: A549
Assay: Inhibition of Akt phosphorylation in insulin-stimulated human A549 cells at 10 uM treated 2 hrs before insulin stimulation measured after 30 mins by ELISA
Type: cell-based
// inhibition lookup, one value per entry

{"Compound": "CCCCCCCCCCCCCCCCCCCCO[C@H]1CCC[C@H]1COP(=O)([O-])OCC[N+](C)(C)C (racemic)", "inhibition, %": 54.4}
{"Compound": "CCCCCCCCCCCCCCCCCCO[C@H]1CCC[C@H]1COP(=O)([O-])OCC[N+](C)(C)C (racemic)", "inhibition, %": 35.2}
{"Compound": "CCCCCCCCCCCCCCCCCCO[C@@H]1CCC[C@H]1COP(=O)([O-])OCC[N+](C)(C)C (racemic)", "inhibition, %": 32.4}
{"Compound": "CCCCCCCCCCCCCCCCCCCCO[C@@H]1CCC[C@H]1COP(=O)([O-])OCC[N+](C)(C)C (racemic)", "inhibition, %": 58.9}
{"Compound": "CCCCCCCCCCCCCCCCCCCCOC[C@@H]1CCC[C@H]1OP(=O)([O-])OCC[N+](C)(C)C (racemic)", "inhibition, %": 74.4}
{"Compound": "CCCCCCCCCCCCCCCCCCCCCCO[C@H]1CCC[C@H]1COP(=O)([O-])OCC[N+](C)(C)C (racemic)", "inhibition, %": 36.2}
{"Compound": "CCCCCCCCCCCCCCCCCCCCCCO[C@@H]1CCC[C@H]1COP(=O)([O-])OCC[N+](C)(C)C (racemic)", "inhibition, %": 68}
{"Compound": "CCCCCCCCCCCCCO[C@@H]1CCC[C@H]1COP(=O)([O-])OCC[N+](C)(C)C (racemic)", "inhibition, %": 40.8}

----------
System: A549
Assay: Inhibition of Akt phosphorylation in insulin-stimulated human A549 cells at 10 uM treated 2 hrs before insulin stimulation measured after 30 mins by ELISA
Assay type: cell-based
// inhibition lookup, one value per entry

{"Compound": "CCCCCCCCCCCCO[C@@H]1CCC[C@H]1COP(=O)([O-])OCC[N+](C)(C)C (racemic)", "Measurement target": "A549", "Unit name": "%", "inhibition": 31.7}
{"Compound": "CCCCCCCCCCCCCCCCCCCCCCOC[C@@H]1CCC[C@H]1OP(=O)([O-])OCC[N+](C)(C)C (racemic)", "Measurement target": "A549", "Unit name": "%", "inhibition": 58.2}
{"Compound": "CCCCCCCCCCCCCCCCCCOC[C@@H]1CCC[C@H]1OP(=O)([O-])OCC[N+](C)(C)C (racemic)", "Measurement target": "A549", "Unit name": "%", "inhibition": 63.4}
{"Compound": "CCCCCCCCCCCCOC[C@@H]1CCC[C@H]1OP(=O)([O-])OCC[N+](C)(C)C (racemic)", "Measurement target": "A549", "Unit name": "%", "inhibition": 36.2}
{"Compound": "CCCCCCCCCCCCCCCCCCOP(=O)([O-])OC1CC[N+](C)(C)CC1", "Measurement target": "A549", "Unit name": "%", "inhibition": 68}
{"Compound": "CCCCCCCCCCCCCCCCOP(=O)([O-])OCC[N+](C)(C)C", "Measurement target": "A549", "Unit name": "%", "inhibition": 56.3}
{"Compound": "CCCCCCCCCCCCO[C@H]1CCC[C@H]1COP(=O)([O-])OCC[N+](C)(C)C (racemic)", "Measurement target": "A549", "Unit name": "%", "inhibition": 30.4}
{"Compound": "CCCCCCCCCCCCCOC[C@@H]1CCC[C@H]1OP(=O)([O-])OCC[N+](C)(C)C (racemic)", "Measurement target": "A549", "Unit name": "%", "inhibition": 65.4}
{"Compound": "CCCCCCCCCCCCCO[C@H]1CCC[C@H]1COP(=O)([O-])OCC[N+](C)(C)C (racemic)", "Measurement target": "A549", "Unit name": "%", "inhibition": 44.7}
